Reference source for all entries: the supplement of paper PMC10307832

# System: ABC-1
# assay comment: relative viability (nuclei count vs DMSO), 5 days (fraction); higher = more cells survive
# condition label: first compound 0.01 µM
This listing pairs compounds with measured relative viability.
Respond with the number and no other words.

For the compound O=c1cc(N2CCOCC2)oc2c(-c3cccc4c3sc3ccccc34)cccc12 + CS(=O)(=O)CCNCc1ccc(-c2ccc3ncnc(Nc4ccc(OCc5cccc(F)c5)c(Cl)c4)c3c2)o1 [Lapatinib] (partner 2 µM) , report relative viability.
1.07

For the compound CCN(CC)CCCCNc1ncc2cc(-c3cc(OC)cc(OC)c3)c(NC(=O)NC(C)(C)C)nc2n1 + C[C@@H](Oc1cc(-c2cnn(C3CCNCC3)c2)cnc1N)c1c(Cl)ccc(F)c1Cl [Crizotinib] (partner 1 µM) , report relative viability.
1.53
